Numbers sourced from paper PMC5706701.

systemTested: Human IP6K1 (Homo sapiens)
Construct: GST (N, cleaved yes); made in house; host or cells: C43 E. coli, pGEX-6P-2
assayExplanation: IP6K1 high-throughput screen of the Sigma LOPAC (ADP-Glo Max, single point);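 note: final compound concentration 10µM in 5% DMSO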
Type: biochemical
conditionContext: LOPAC single-point screen, Z-score against plate average and StDev
assayReadout: Z-score
Enter a number only.

Problem: Query (molecule): COC(=O)[C@H]1[C@H]2C[C@@H]3c4[nH]c5cc(OC)ccc5c4CCN3C[C@H]2C[C@@H](OC(=O)c2cc(OC)c(OC)c(OC)c2)[C@@H]1OC [Reserpine] ; field requested: Z-score
Result: 0.1918

Problem: // returns reported Z-score for input CCC1(c2ccc(N)cc2)CCC(=O)NC1=O (racemic) [(±)-p-Aminoglutethimide]
Result: 0.1233

Problem: Recorded Z-score for Nc1nc(Cl)nc2c1ncn2C1OC(CO)C(O)C1O (stereo not shown) [2-Chloroadenosine] , please?
Result: 0.03732

Problem: Z-score lookup needed for O=c1[nH]c2ccccc2n1CCCN1CCN(C(c2ccccc2)c2ccccc2)CC1 [Oxatomide] , thanks.
Result: 0.1123

----------
systemTested: Human IP6K1 (Homo sapiens, UniProt Q92551)
Construct: GST (N, cleaved yes); made in house; host or cells: C43 E. coli, pGEX-6P-2
Sequence (Q92551 whole entry): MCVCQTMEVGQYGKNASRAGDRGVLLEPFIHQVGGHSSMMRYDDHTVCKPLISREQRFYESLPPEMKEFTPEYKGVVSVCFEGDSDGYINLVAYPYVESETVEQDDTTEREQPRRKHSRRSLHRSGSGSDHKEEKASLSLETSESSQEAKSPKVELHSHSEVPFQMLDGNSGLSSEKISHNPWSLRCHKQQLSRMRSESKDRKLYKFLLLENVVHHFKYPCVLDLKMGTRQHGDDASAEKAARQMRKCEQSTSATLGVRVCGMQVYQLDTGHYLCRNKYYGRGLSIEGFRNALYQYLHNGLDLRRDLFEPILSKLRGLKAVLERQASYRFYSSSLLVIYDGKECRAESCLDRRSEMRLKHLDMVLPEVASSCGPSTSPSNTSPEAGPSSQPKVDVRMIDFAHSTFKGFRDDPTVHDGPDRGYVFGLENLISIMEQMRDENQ
assayExplanation: IP6K1 high-throughput screen of the Sigma LOPAC (ADP-Glo Max, single point);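 note: final compound concentration 10µM in 5% DMSO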
Type: biochemical
conditionContext: LOPAC single-point screen, ADP-Glo Max luminescence raw signal per well
Structures can show the parent of a compound that is named as a salt.
assayReadout: Raw Signal
Respond with the number and no other words.

Problem: Requested read-out: Raw Signal. Entry: CNC[C@H](O)c1ccc(O)c(O)c1 [(-)-Epinephrine bitartrate]
Result: 51229

Problem: // returns reported Raw Signal for input CN1C[C@H](C(=O)N[C@]2(C)O[C@@]3(O)[C@@H]4CCCN4C(=O)[C@H](Cc4ccccc4)N3C2=O)C[C@@H]2c3cccc4[nH]cc(c34)C[C@H]21 [Dihydroergotamine methanesulfonate]
Result: 48691

Problem: Which Raw Signal value belongs to C#CCN[C@H](C)Cc1ccccc1.Cl [R-(-)-Desmethyldeprenyl hydrochloride] ?
Result: 52026

Problem: Which Raw Signal value belongs to N=C(N)N1CCc2ccccc2C1 [Debrisoquin sulfate] ?
Result: 61933

Problem: Could you tell me which Raw Signal is on file for CCCC(C(=O)OCCN(CC)CC)(c1ccccc1)c1ccccc1.Cl [SKF-525A hydrochloride] ?
Result: 51241

Problem: Name the recorded Raw Signal for CCCCC/C=C\C[C@@H](O)/C=C/c1cccc(C[C@@H](O)CCCCO)n1 .
Result: 63793

Problem: Look up Raw Signal: CCN1CCCC1CNC(=O)c1cc(S(N)(=O)=O)ccc1OC (racemic) [(±)-Sulpiride]
Result: 63231

----------
systemTested: Human IP6K1 (Homo sapiens)
Construct: GST (N, cleaved yes); made in house; host or cells: C43 E. coli, pGEX-6P-2
assayExplanation: IP6K1 high-throughput screen of the Sigma LOPAC (ADP-Glo Max, single point);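 note: final compound concentration 10µM in 5% DMSO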
Type: biochemical
conditionContext: Sigma LOPAC single-point screen, ADP-Glo Max raw signal per well
assayReadout: Raw Signal
Reply briefly: the number, and no unit.

Problem: Lab note: need Raw Signal for Cl.NCCNC(=O)c1ncsc1-c1cccc(F)c1 [Ro 41-1049 hydrochloride] on Human IP6K1 (Homo sapiens), anyone have it?
Result: 60989

Problem: Missing value: Raw Signal, Human IP6K1 (Homo sapiens), entry NC(=O)CN1CCCC1=O . Fill in?
Result: 58233

Problem: // fetch Human IP6K1 (Homo sapiens) Raw Signal for NS(=O)(=O)c1cc2c(cc1Cl)NC(C1CC3C=CC1C3)NS2(=O)=O (stereo not shown) [Cyclothiazide]
Result: 61194

Problem: Value wanted: Raw Signal (Human IP6K1 (Homo sapiens)) of entry O=C1CCC(c2ccc(-n3ccnc3)cc2)=NN1
Result: 60009

Problem: // lookup Raw Signal | system=Human IP6K1 (Homo sapiens) | key= Br.COc1ccccc1N1CCN(CCCCN2C(=O)c3ccccc3C2=O)CC1 [NAN-190 hydrobromide]
Result: 61226

Problem: Request body: readout Raw Signal, system Human IP6K1 (Homo sapiens), query COc1cc2c(cc1O)CC[C@@H]1[C@@H]2CC[C@]2(C)[C@@H](O)CC[C@@H]12 . Return the value.
Result: 58620

Problem: Request - read-out Raw Signal | tested on Human IP6K1 (Homo sapiens) | compound O=C(NCCNCC(O)COc1ccc(O)cc1)N1CCOCC1 (stereo not shown) [Xamoterol hemifumarate]
Result: 60033

----------
Consider the following compounds; for each one, report its Z-score.
systemTested: Human IP6K1 (Homo sapiens)
Construct: GST (N, cleaved yes); made in house; host or cells: C43 E. coli, pGEX-6P-2
assayExplanation: IP6K1 high-throughput screen of the Sigma LOPAC (ADP-Glo Max, single point);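 note: final compound concentration 10µM in 5% DMSO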
Assay type: biochemical
conditionContext: Sigma LOPAC single-point screen; Z-score from plate average and StDev
Structures can show the parent of a compound that is named as a salt.

Problem: Find the recorded Z-score belonging to Cl.NC1(C(=O)O)CC1 and report it.
Result: 1.333

Problem: Give the measured Z-score of C[N+](C)(C)CC(=O)O [Betaine hydrochloride] .
Result: 0.7452

Problem: Fill in: Z-score of NNC(=O)c1ccc(O)cc1 [4-Hydroxybenzhydrazide] is ___
Result: 0.7987

Problem: Return reported Z-score; argument: C[N+]1(C)[C@@H]2CC[C@H]1C[C@@H](OC(=O)C(CO)c1ccccc1)C2 (some centres unmarked) [Atropine methyl nitrate]
Result: 0.3882

Problem: Would you kindly share the measured Z-score for Cl.Cl.Cl.Ic1ccc(N2CCN(Cc3c[nH]c4ncccc34)CC2)cc1 [L-750,667 trihydrochloride] ?
Result: 1.1887

Problem: Give its Z-score value. Item: C=C1C(=O)O[C@H]2[C@H]1CC/C(C)=C/CC[C@@]1(C)O[C@@H]21 [Parthenolide]
Result: 0.3492

Problem: # Z-score lookup, item N=C(N)NC(=O)c1nc(Cl)c(N)nc1N [Amiloride hydrochloride]
Result: 1.0527

Problem: // Z-score lookup, key: CC(=O)[C@H]1CC[C@H]2[C@@H]3CC[C@H]4C[C@H](O)CC[C@]4(C)[C@H]3C(=O)C[C@]12C [5alpha-Pregnan-3alpha-ol-11,20-dione]
Result: 0.4319

----------
systemTested: Human IP6K1 (Homo sapiens, UniProt Q92551)
Construct: GST (N, cleaved yes); made in house; host or cells: C43 E. coli, pGEX-6P-2
assayExplanation: IP6K1 high-throughput screen of the Sigma LOPAC (ADP-Glo Max, single point);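 note: final compound concentration 10µM in 5% DMSO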
Format: biochemical
conditionContext: Sigma LOPAC single-point screen, ADP-Glo Max raw signal per well
Structures can show the parent of a compound that is named as a salt.
Would you kindly list Raw Signal for each of these compounds?
// keep it numeric: no unit symbol after the value

Problem: Which value of Raw Signal has been reported for O=C1CC2(CCCC2)CC(=O)N1CCCCN1CCN(c2ncccn2)CC1 [Buspirone hydrochloride] in the records?
Result: 60893

Problem: GET /values?readout=Raw Signal&item= C1CNCCN1.COc1cc(C(O)CO)ccc1O.COc1cc(C(O)CO)ccc1O (centres unmarked)
Result: 58694

Problem: State the recorded Raw Signal for this entry: Cl.NCCNC(=O)c1ccc(Cl)cc1 [Ro 16-6491 hydrochloride]
Result: 60492

Problem: Name the recorded Raw Signal for CC1=NS(=O)(=O)c2cc(Cl)ccc2N1 [Diazoxide] .
Result: 58351

Problem: Report Raw Signal for Cc1nc(-c2ccc(-c3ccc(C(=O)N4CCc5cc6c(cc54)C4(CCN(C)CC4)CO6)cc3)c(C)c2)no1.Cl [SB 224289 hydrochloride] please.
Result: 58823

Problem: I am curious: what Raw Signal value has been reported for N#C/C(=C\c1ccc(O)c(O)c1)C(=O)N1CCc2ccccc21 ?
Result: 58882

Problem: Suppose we examine the compound N[C@@H](COP(=O)(O)O)C(=O)O ; what Raw Signal value has been reported?
Result: 59842

Problem: Which Raw Signal is listed for Cn1c(=O)c2[nH]c(C3CCCC3)nc2n(C)c1=O ?
Result: 58283

Problem: Would you kindly share the measured Raw Signal for COc1cc(Cc2cnc(N)nc2N)cc(OC)c1OC ?
Result: 61776

Problem: Fill in: Raw Signal of NCCc1c[nH]c2ccc(O)cc12 [Serotonin hydrochloride] is ___
Result: 60327

Problem: Param item = CN1CCN(CCCN2c3ccccc3Sc3ccc(Cl)cc32)CC1 [Prochlorperazine dimaleate] ; retrieve measured Raw Signal.
Result: 58817

----------
systemTested: Human IP6K1 (Homo sapiens)
Construct: GST (N, cleaved yes); made in house; host or cells: C43 E. coli, pGEX-6P-2
assayExplanation: IP6K1 high-throughput screen of the Sigma LOPAC (ADP-Glo Max, single point);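 note: final compound concentration 10µM in 5% DMSO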
Type: biochemical
conditionContext: LOPAC single-point screen; Z-score from raw signal with plate average and StDev
Structures can show the parent of a compound that is named as a salt.
assayReadout: Z-score
Lab note: jot the number down without any unit.

Problem: Any idea what Z-score was measured for C[C@H]1O[C@@H](n2cc(F)c(=O)[nH]c2=O)[C@H](O)[C@@H]1O [5-fluoro-5-deoxyuridine] ?
Result: -0.2376

Problem: Return reported Z-score; argument: C[C@H]1C[C@H]2[C@@H]3CCC4=CC(=O)C=C[C@]4(C)[C@@]3(Cl)[C@@H](O)C[C@]2(C)[C@@]1(O)C(=O)CO [Beclomethasone]
Result: -0.4358

Problem: What measured Z-score goes with CN(C)CCOC(c1ccccc1)c1ccccc1 [Diphenhydramine hydrochloride] ?
Result: -0.1438
